The entries below are paired with their reported RTCA, MEC (BR).
Test system: hiPSC-CM (iCell Cardiomyocytes^2)
Assay: RTCA CardioECR assessment (impedance and electrophysiology parameters)
Conditions: hiPSC-CM; change ≥20%; Table 2
Where a name gives a salt, the structure may show the parent alone.

>  <compound>
CCN(CC)CCNC(=O)c1c(C)[nH]c(/C=C2\C(=O)Nc3ccc(F)cc32)c1C

>  <tested.on>
hiPSC-CM (iCell Cardiomyocytes^2)

>  <RTCA, MEC (BR)>
1 µM (BR)

$$$$
>  <compound>
CC(C)C[C@H](NC(=O)CNC(=O)c1cc(Cl)ccc1Cl)B1OC(=O)C(CC(=O)O)(CC(=O)O)O1 [Ixazomib Citrate]

>  <tested.on>
hiPSC-CM (iCell Cardiomyocytes^2)

>  <RTCA, MEC (BR)>
0.03 µM

$$$$
>  <compound>
CC(C)C[C@H](NC(=O)[C@H](CCc1ccccc1)NC(=O)CN1CCOCC1)C(=O)N[C@@H](Cc1ccccc1)C(=O)N[C@@H](CC(C)C)C(=O)[C@@]1(C)CO1

>  <tested.on>
hiPSC-CM (iCell Cardiomyocytes^2)

>  <RTCA, MEC (BR)>
0.3 µM (CI, BR (Q))

$$$$
